Below: a set of entries, each annotated with reported IC50.
- Tested on: Sporothrix schenckii
- experiment: Antifungal activity against Sporothrix schenckii by broth microdilution method
- Assay type: functional, organism-based
- particulars: read-out: pIC50 (converted)
observation-type: IC50 (µM)

{"compound": "Cc1cc(C)cc(S(=O)(=O)OC(CN(Cc2ccccc2)C(=O)OC(C)(C)C)c2ccccc2)c1 (centres undefined)", "target-system": "Sporothrix schenckii", "observation-type": "IC50", "recorded-measurement": 31.2}
{"compound": "O=S(=O)(OC(CNCc1ccccc1)c1ccccc1)c1c(Cl)cccc1Cl (centres undefined)", "target-system": "Sporothrix schenckii", "observation-type": "IC50", "recorded-measurement": 12}
{"compound": "CC(C)(C)OC(=O)N(Cc1ccc(F)cc1)CC(OS(=O)(=O)c1cccc(Cl)c1Cl)c1ccccc1 (centres undefined)", "target-system": "Sporothrix schenckii", "observation-type": "IC50", "recorded-measurement": 7.46}
{"compound": "CC(C)(C)OC(=O)N(Cc1ccccc1)CC(OS(=O)(=O)c1cccc([N+](=O)[O-])c1)c1ccccc1 (centres undefined)", "target-system": "Sporothrix schenckii", "observation-type": "IC50", "recorded-measurement": 5.95}
{"compound": "Cc1ccc(C(CN(Cc2ccccc2)C(=O)OC(C)(C)C)OS(=O)(=O)c2cccc(Cl)c2Cl)cc1 (centres undefined)", "target-system": "Sporothrix schenckii", "observation-type": "IC50", "recorded-measurement": 10.7}
{"compound": "CC(C)(C)OC(=O)N(Cc1ccccc1)CC(OS(=O)(=O)c1c(Cl)cccc1Cl)c1ccccc1 (centres undefined)", "target-system": "Sporothrix schenckii", "observation-type": "IC50", "recorded-measurement": 11.4}
{"compound": "COc1ccc(CN(CC(OS(=O)(=O)c2cccc([N+](=O)[O-])c2)c2ccccc2)C(=O)OC(C)(C)C)cc1 (centres undefined)", "target-system": "Sporothrix schenckii", "observation-type": "IC50", "recorded-measurement": 6.24}
{"compound": "CC(C)(C)OC(=O)N(Cc1ccc(Cl)c(Cl)c1)CC(OS(=O)(=O)c1cccc(Cl)c1Cl)c1ccccc1 (centres undefined)", "target-system": "Sporothrix schenckii", "observation-type": "IC50", "recorded-measurement": 23.3}
{"compound": "CC(C)(C)OC(=O)N(Cc1ccc(Cl)c(Cl)c1)CC(OS(=O)(=O)c1cccc([N+](=O)[O-])c1)c1ccccc1 (centres undefined)", "target-system": "Sporothrix schenckii", "observation-type": "IC50", "recorded-measurement": 24.4}
{"compound": "COc1ccc(CN(CC(OS(=O)(=O)c2ccc(F)cc2)c2ccccc2)C(=O)OC(C)(C)C)cc1 (centres undefined)", "target-system": "Sporothrix schenckii", "observation-type": "IC50", "recorded-measurement": 23.1}
{"compound": "CC(C)c1cc(C(C)C)c(S(=O)(=O)OC(CN(Cc2ccccc2)C(=O)OC(C)(C)C)c2ccccc2)c(C(C)C)c1 (centres undefined)", "target-system": "Sporothrix schenckii", "observation-type": "IC50", "recorded-measurement": 46.4}
{"compound": "COc1ccc(C(CN(Cc2ccccc2)C(=O)OC(C)(C)C)OS(=O)(=O)c2cccc(Cl)c2Cl)cc1 (centres undefined)", "target-system": "Sporothrix schenckii", "observation-type": "IC50", "recorded-measurement": 13.4}
{"compound": "CC(C)(C)OC(=O)N(Cc1ccccc1)CC(OS(=O)(=O)c1ccccc1C(F)(F)F)c1ccccc1 (centres undefined)", "target-system": "Sporothrix schenckii", "observation-type": "IC50", "recorded-measurement": 28.4}
{"compound": "CC(C)(C)OC(=O)N(Cc1ccc(Cl)c(Cl)c1)CC(OS(=O)(=O)c1ccc(F)cc1)c1ccccc1 (centres undefined)", "target-system": "Sporothrix schenckii", "observation-type": "IC50", "recorded-measurement": 43.3}
{"compound": "Cc1ccc(S(=O)(=O)OC(CN(Cc2ccccc2)C(=O)OC(C)(C)C)c2ccccc2)cc1 (centres undefined)", "target-system": "Sporothrix schenckii", "observation-type": "IC50", "recorded-measurement": 32.7}
{"compound": "CC(C)(C)OC(=O)N(Cc1ccccc1)CC(OS(=O)(=O)c1ccc(C#N)cc1)c1ccccc1 (centres undefined)", "target-system": "Sporothrix schenckii", "observation-type": "IC50", "recorded-measurement": 32.7}
{"compound": "CC(C)(C)OC(=O)N(Cc1ccccc1)CC(OS(=O)(=O)c1ccc(F)cc1)c1ccccc1 (centres undefined)", "target-system": "Sporothrix schenckii", "observation-type": "IC50", "recorded-measurement": 8.66}
{"compound": "CC(C)(C)OC(=O)N(Cc1ccccc1)CC(OS(=O)(=O)c1cccc(Cl)c1Cl)c1ccccc1 (centres undefined)", "target-system": "Sporothrix schenckii", "observation-type": "IC50", "recorded-measurement": 26.7}
{"compound": "O=S(=O)(OC(CNCc1ccccc1)c1ccccc1)c1cccc(Cl)c1Cl (centres undefined)", "target-system": "Sporothrix schenckii", "observation-type": "IC50", "recorded-measurement": 15.6}
